Values were extracted from patent US6566355B1.

Test system: Citrobacter freundii
Test method notes: MIC in vitro of a 1:4 combination of ceftriaxone with a compound of formula I (test D)
Assay type: cell-based
Experimental context: 1:4 combination of ceftriaxone with the compound
Where a name gives a salt, the structure may show the parent alone.
Would you kindly list MIC for each of these compounds?
One number for each entry, in µg/mL.

Reference set, count: 3
1) Cn1ccnc1SCC(=O)N1CC[C@@H]2[C@H]1C(=O)N2S(=O)(=O)[O-].[Na+]    1
2) O=C(CCC(=O)N1CC[C@@H]2[C@H]1C(=O)N2S(=O)(=O)O)NOCc1ccco1 [Example 19, sodium salt]    2
3) O=C(/C=C/c1c[nH]cn1)N1CC[C@@H]2[C@H]1C(=O)N2S(=O)(=O)[O-].[Na+]    0.5

// each listed compound needs a value for MIC
1. CC(C)n1nnc(CC(=O)N2CC[C@@H]3[C@H]2C(=O)N3S(=O)(=O)[O-])n1.[Na+]
2. O=C(NCc1ccc(O)c(O)c1)N1CC[C@@H]2[C@H]1C(=O)N2S(=O)(=O)[O-].[Na+] [17(e)]
3. O=C(NCc1ccco1)N1CC[C@@H]2[C@H]1C(=O)N2S(=O)(=O)O [Example 17(a), sodium salt]
4. O=C1SCC[C@H]1NC(=O)N1CC[C@@H]2[C@H]1C(=O)N2S(=O)(=O)O [17(u), sodium salt]

4
2
2
2

Count: 2. Required value per item: MIC.
1. O=C(Cn1cnnn1)N1CC[C@@H]2[C@H]1C(=O)N2S(=O)(=O)[O-].[Na+]
2. Nc1cccc(NCC(=O)N2CC[C@@H]3[C@H]2C(=O)N3S(=O)(=O)O)c1

1. 1
2. 2

List MIC for every entry below, keeping the order given.
1. O=C(CNc1ccccc1)N1CC[C@@H]2[C@H]1C(=O)N2S(=O)(=O)[O-].[Na+]
2. NC(C(=O)N1CC[C@@H]2[C@H]1C(=O)N2S(=O)(=O)[O-])c1ccccc1F.[Na+] (mixture of isomers)

1: 2; 2: 2

I'm hoping you can list MIC for every compound here, please.
1. O=C(/C=C/c1cc[nH]n1)N1CC[C@@H]2[C@H]1C(=O)N2S(=O)(=O)[O-].[Na+] [23(e)]
2. Nc1ccc(/C=C/C(=O)N2CC[C@@H]3[C@H]2C(=O)N3S(=O)(=O)O)cc1

1
4
